Ref: patent US20100120778A1

The following are reported IC50 results, target or system human LXRα (Homo sapiens, UniProt Q13133).
Answer in nM, number only, no unit symbol.

So for CCS(=O)(=O)c1cccc(Oc2ccc(Cl)c(-c3nc4cccc(C(F)(F)F)c4nc3C)c2)c1 [Example 56] , the logged IC50 turned out to be 435

So for Cc1nc2c(C(F)(F)F)cccc2nc1-c1cc(Oc2cccc(S(C)(=O)=O)c2)ccc1Cl [Example 36] , the logged IC50 turned out to be 292

---

Measured pIC50, listed per entry for reference.
target: human LXRβ (Homo sapiens, UniProt P55055)
Sequence (P55055 whole entry): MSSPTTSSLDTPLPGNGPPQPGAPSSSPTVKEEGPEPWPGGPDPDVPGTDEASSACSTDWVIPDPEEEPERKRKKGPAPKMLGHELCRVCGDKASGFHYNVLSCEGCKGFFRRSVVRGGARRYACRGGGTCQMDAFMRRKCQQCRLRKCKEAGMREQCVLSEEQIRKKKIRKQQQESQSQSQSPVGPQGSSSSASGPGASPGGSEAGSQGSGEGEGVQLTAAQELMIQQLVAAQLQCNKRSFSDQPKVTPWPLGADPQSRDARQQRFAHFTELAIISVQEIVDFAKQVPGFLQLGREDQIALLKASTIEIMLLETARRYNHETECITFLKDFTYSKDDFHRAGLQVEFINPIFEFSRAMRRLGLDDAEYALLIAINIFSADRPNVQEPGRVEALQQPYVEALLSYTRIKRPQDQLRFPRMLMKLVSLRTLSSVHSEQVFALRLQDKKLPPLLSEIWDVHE
Please report pIC50 as the negative decimal logarithm of the molar concentration, giving only the number.

Cc1nc2c(C(F)(F)F)cccc2nc1-c1cc(Oc2cccc(S(=O)(=O)C(C)C)c2)ccc1Cl	7.10
CCS(=O)(=O)c1cccc(-c2cccc(Oc3nc4cccc(Cl)c4nc3C)c2)c1	6.62
Cc1nc2cccc(C(F)(F)F)c2nc1-c1ccc(-c2cccc(S(C)(=O)=O)c2)cc1	6.43

Case Cc1nc2c(C(F)(F)F)cccc2nc1-c1cc(Oc2cccc(S(=O)(=O)CCCC#N)c2)ccc1Cl , human LXRβ (Homo sapiens, UniProt P55055), pIC50 recorded as 6.89

Case O=S(=O)(CCCO)c1cccc(Oc2cccc(-c3cnc4cccc(C(F)(F)F)c4n3)c2)c1 , human LXRβ (Homo sapiens, UniProt P55055), pIC50 recorded as 5.60

Case Cc1nc2cccc(C(F)(F)F)c2nc1-c1cc(Oc2cc(F)cc(S(C)(=O)=O)c2)ccc1Cl , human LXRβ (Homo sapiens, UniProt P55055), pIC50 recorded as 7.05

Case Cc1nc2cccc(C(F)(F)F)c2nc1-c1ccc(-c2cccc(S(C)(=O)=O)c2)cc1F , human LXRβ (Homo sapiens, UniProt P55055), pIC50 recorded as 6.40

Case Cc1nc2c(Cl)cccc2nc1Oc1ccc(-c2cccc(NS(C)(=O)=O)c2)cc1 , human LXRβ (Homo sapiens, UniProt P55055), pIC50 recorded as 6.06

Case Cc1nc2cccc(Cl)c2nc1-c1ccc(-c2cccc(S(C)(=O)=O)c2)cc1 , human LXRβ (Homo sapiens, UniProt P55055), pIC50 recorded as 6.63
